# tested system: BCL6 (Homo sapiens)
# Construct: Endogenous BCL6 was tagged with the 11-amino acid SmBiT through CRISPR/Cas9 gene editing; endogenous in cells; host or cells: Su-DHL-4 cells, CRISPR/Cas9 knock-in single cell clone
# protocol summary: HiBiT cellular degradation assay (Promega) in Su-DHL-4 cells
# Assay type: cell-based
# setup conditions: concentration to reach 50% degradation; endogenous BCL6 tagged with SmBiT in Su-DHL-4 cells; 24 hr of compound treatment; relative to DMSO control
endpoint label: DC50 (µM)

Known results for molecules:
- molecule: "C[C@H]1CN2C[C@@H](NCCOc3cc(cc4c3n(C)c(=O)n4CCC(C)(C)O)Nc3nc2ncc3Cl)C1(F)F [Compound 15]"
  units: "µM"
  DC50: 0.082
- molecule: "C[C@@H]1CN2C[C@H](NCCOc3cc(cc4c3n(C)c(=O)n4C[C@@H](O)C(C)(C)O)Nc3nc2ncc3Cl)C1(F)F [Compound 41]"
  units: "µM"
  DC50: 0.001

P: C[C@@H]1CN2C[C@H](NCCOc3cc(cc4[nH]c(=O)n(C)c34)Nc3nc2ncc3Cl)C1(F)F [Compound 31]
Q: C[C@@H]1CN2C[C@H](CCCOc3cc(cc4[nH]c(=O)n(C)c34)Nc3nc2ncc3Cl)C1(F)F [Compound 26]
In: Of P and Q , whose reported DC50 is numerically smaller? Please indicate the selected item by its label.
Out: P
(P: 0.0075 µM, Q: 0.072 µM)
